- targetUnderTest: rat α1β2γ2L type GABAA receptors expressed in Xenopus laevis oocytes (Rattus norvegicus, UniProt P18508+P62813+P63138, INS375LLRMFSFK)
- Construct: expressed in transfected cells; host or cells: Xenopus laevis oocytes
- Sequence (P62813 28-455, stated change not applied): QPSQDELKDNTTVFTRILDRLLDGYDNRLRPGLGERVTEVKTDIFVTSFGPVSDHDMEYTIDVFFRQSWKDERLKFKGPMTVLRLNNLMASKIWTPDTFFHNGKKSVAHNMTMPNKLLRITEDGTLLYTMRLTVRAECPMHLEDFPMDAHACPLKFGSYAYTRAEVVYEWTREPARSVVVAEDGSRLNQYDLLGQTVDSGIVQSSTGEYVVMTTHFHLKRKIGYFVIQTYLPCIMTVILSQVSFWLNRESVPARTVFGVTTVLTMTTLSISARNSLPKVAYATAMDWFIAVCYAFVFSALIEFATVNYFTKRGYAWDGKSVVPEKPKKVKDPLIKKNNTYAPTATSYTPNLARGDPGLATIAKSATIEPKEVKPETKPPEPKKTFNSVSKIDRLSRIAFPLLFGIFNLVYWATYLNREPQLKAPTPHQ
- Sequence (P63138 26-474, stated change not applied): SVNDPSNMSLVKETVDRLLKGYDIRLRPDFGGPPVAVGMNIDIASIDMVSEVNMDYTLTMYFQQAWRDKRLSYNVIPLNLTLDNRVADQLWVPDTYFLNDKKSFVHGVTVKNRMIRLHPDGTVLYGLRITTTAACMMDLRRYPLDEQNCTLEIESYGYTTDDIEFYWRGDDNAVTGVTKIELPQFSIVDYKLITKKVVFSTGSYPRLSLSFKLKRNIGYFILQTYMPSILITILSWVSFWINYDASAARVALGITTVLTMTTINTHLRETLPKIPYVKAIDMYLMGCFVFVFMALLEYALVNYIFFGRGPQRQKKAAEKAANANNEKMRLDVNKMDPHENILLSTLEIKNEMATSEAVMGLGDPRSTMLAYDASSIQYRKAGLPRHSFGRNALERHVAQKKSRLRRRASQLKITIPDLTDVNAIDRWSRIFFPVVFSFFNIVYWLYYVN
- Sequence (P18508 with tags, fused parts or gaps INS375LLRMFSFK): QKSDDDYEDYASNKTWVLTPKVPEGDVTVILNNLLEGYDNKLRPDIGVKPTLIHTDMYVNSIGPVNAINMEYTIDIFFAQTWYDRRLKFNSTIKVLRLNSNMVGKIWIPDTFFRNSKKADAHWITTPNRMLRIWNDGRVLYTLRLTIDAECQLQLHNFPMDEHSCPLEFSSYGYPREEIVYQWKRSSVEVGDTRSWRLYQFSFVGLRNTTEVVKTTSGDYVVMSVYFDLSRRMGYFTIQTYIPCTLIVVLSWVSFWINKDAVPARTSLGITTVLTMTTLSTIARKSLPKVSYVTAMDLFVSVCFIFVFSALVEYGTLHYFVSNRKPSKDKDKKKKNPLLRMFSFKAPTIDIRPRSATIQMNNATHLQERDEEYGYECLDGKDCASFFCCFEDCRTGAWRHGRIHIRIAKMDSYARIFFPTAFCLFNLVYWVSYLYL
- testSummary: Oocyte electrophysiology: potentiation of chloride currents mediated by 2 μM GABA, and direct gating
- Type: cell-based
- appliedConditions: 0.1 μM compound; 2 μM GABA; ± SEM (N≥4)
- Experimental: The compounds of the present disclosure were evaluated for the ability to potentiate chloride currents mediated by 2 μM GABA at rat α1β2γ2L type GABAA receptors expressed in Xenopus laevis oocytes and the results are shown in Table 2. The GABA concentration used for the control response was 2 μM. Each compound was evaluated on at least four different oocytes at the concentrations indicated, and the results reported are the ratio of currents measured in the presence/absence of added compound. […]
Below, each entry is listed with its recorded ratio of currents measured in the presence/absence of added compound, 0.1 μM.

Some solved entries appear below for comparison.
CO[C@H]1[C@H]2CC[C@@H]3[C@H]4CC(=O)C[C@]4(C)CC[C@H]3[C@]2(C)CC[C@@H]1O	1.41 ± 0.07
C[C@@]12CC[C@@H]3[C@H](CC[C@@H]4C[C@@H](O)CC[C@]43C)[C@H]1C[C@@H](C#N)C2	2.20 ± 0.20
CO[C@H]1CC[C@]2(C)CC[C@@H]3[C@H](CC[C@@H]4C[C@@H](O)CC[C@]43C)[C@@H]12	3.43 ± 0.29

Entry `CO[C@@H]1C[C@@H]2[C@H]3CC[C@@H]4C[C@@H](O)CC[C@@]4(C)[C@@H]3CC[C@@]2(C)C1` has what ratio of currents measured in the presence/absence of added compound, 0.1 μM?
1.16 ± 0.07

---

- targetUnderTest: rat α1β2γ2L type GABAA receptors expressed in Xenopus laevis oocytes (Rattus norvegicus, UniProt P18508+P62813+P63138, INS375LLRMFSFK)
- Construct: expressed in transfected cells; host or cells: Xenopus laevis oocytes
- testSummary: Oocyte electrophysiology: potentiation of chloride currents mediated by 2 μM GABA, and direct gating
- Format: cell-based
- appliedConditions: 0.1 μM compound; 2 μM GABA; ± SEM (N≥4)
assayEndpoint: ratio of currents measured in the presence/absence of added compound, 0.1 μM

Some solved entries appear below for comparison.
C[C@@]12CC[C@@H]3[C@H](CC[C@H]4C[C@@H](O)CC[C@]43C)[C@H]1CC(=O)C2	1.75 ± 0.24
C[C@@]12CC[C@@H]3[C@H](CC[C@@H]4C[C@@H](O)CC[C@]43C)[C@H]1CC(=O)C2	1.42 ± 0.02

Entry `CO[C@H]1[C@H]2CC[C@H]3[C@@H](CC[C@@]4(C)C(=O)CC[C@H]34)[C@]2(C)CC[C@@H]1O` has what ratio of currents measured in the presence/absence of added compound, 0.1 μM?
1.21 ± 0.02

Entry `C[C@]1(O)CC[C@]2(C)[C@@H](CC[C@H]3[C@H]2CC[C@@]2(C)C(=O)CC[C@H]32)C1` has what ratio of currents measured in the presence/absence of added compound, 0.1 μM?
1.38 ± 0.10

Entry `C[C@@]12CC[C@H](O)C[C@@H]1CC[C@H]1[C@H]2CC[C@@]2(C)C=C(C#N)C[C@H]12` has what ratio of currents measured in the presence/absence of added compound, 0.1 μM?
0.98 ± 0.02

Entry `CC(=O)[C@@H]1C[C@@H]2[C@H]3CC[C@@H]4C[C@@H](O)CC[C@@]4(C)[C@@H]3CC[C@@]2(C)C1` has what ratio of currents measured in the presence/absence of added compound, 0.1 μM?
1.17 ± 0.09

Entry `C[C@@]12CC[C@H]3[C@@H]4CC[C@H](O)C[C@H]4CC[C@@H]3[C@H]1CCC2=O` has what ratio of currents measured in the presence/absence of added compound, 0.1 μM?
1.07 ± 0.05

Entry `C[C@@]12CC[C@H](O)C[C@H]1CC[C@H]1[C@H]2CC[C@@]2(C)C=C(C#N)C[C@H]12` has what ratio of currents measured in the presence/absence of added compound, 0.1 μM?
1.08 ± 0.11

Entry `C[C@@]12CC[C@@H]3[C@H](CC[C@@H]4C[C@@H](O)CC[C@]43C)[C@H]1CC(=CC#N)C2` has what ratio of currents measured in the presence/absence of added compound, 0.1 μM?
1.63 ± 0.23

Entry `C[C@]1(O)CC[C@]2(C)[C@H](CC[C@H]3[C@H]2CC[C@@]2(C)C(=O)CC[C@H]32)C1` has what ratio of currents measured in the presence/absence of added compound, 0.1 μM?
1.11 ± 0.15

Entry `C[C@@]12CC[C@H](O)C[C@H]1CC[C@@H]1[C@H]3CC(=O)C[C@@H]3CC[C@H]12` has what ratio of currents measured in the presence/absence of added compound, 0.1 μM?
0.93 ± 0.02

Entry `C[C@@]12CC[C@H]3[C@@H]4CC[C@H](O)C[C@H]4CC[C@@H]3[C@H]1CC(=O)C2` has what ratio of currents measured in the presence/absence of added compound, 0.1 μM?
0.97 ± 0.02

Entry `C[C@@]12CC[C@@H]3[C@H](CC(=O)[C@@H]4C[C@@H](O)CC[C@@]34C)[C@H]1CC(=O)C2` has what ratio of currents measured in the presence/absence of added compound, 0.1 μM?
0.68 ± 0.03

---

- targetUnderTest: rat α1β2γ2L type GABAA receptors expressed in Xenopus laevis oocytes (Rattus norvegicus, UniProt P18508+P62813+P63138, INS375LLRMFSFK)
- Construct: expressed in transfected cells; host or cells: Xenopus laevis oocytes
- testSummary: Oocyte electrophysiology: potentiation of chloride currents mediated by 2 μM GABA, and direct gating
- Format: cell-based
- appliedConditions: 10 μM compound; 2 μM GABA; ± SEM (N≥4)
Below, each entry is listed with its recorded ratio of currents measured in the presence/absence of added compound, 10 μM.
Please give only the number in your answer, with no unit.

Entry `C[C@]1(O)CC[C@]2(C)[C@@H](CC[C@H]3[C@H]2CC[C@@]2(C)C(=O)CC[C@H]32)C1` has what ratio of currents measured in the presence/absence of added compound, 10 μM?
23.74

---

- targetUnderTest: picrotoxin binding site on GABAA receptors
- testSummary: [35S]-TBPS displacement (inhibition of [35S]-TBPS binding)
- appliedConditions: non-competitive displacement of [35S]-TBPS; ± standard error of the mean
assayEndpoint: pIC50
In simple prose, pIC50 is minus the logarithm base ten of a concentration in moles per litre.

Some solved entries appear below for comparison.
C[C@@]12CC[C@@H]3[C@H](CC[C@H]4C[C@@H](O)CC[C@]43C)[C@H]1CC(=O)C2	6.95
C[C@@]12CC[C@H]3[C@@H]4CC[C@H](O)C[C@H]4CC[C@@H]3[C@H]1CC(=O)C2	6.62
C[C@@]12CC[C@H]3[C@@H]4CC[C@H](O)C[C@H]4CC[C@@H]3[C@H]1CCC2=O	6.20
C[C@@]12CC[C@@H]3[C@H](CC[C@@H]4C[C@@H](O)CC[C@]43C)[C@H]1CC(=O)C2	7.09
C[C@@]12CC[C@H](O)C[C@H]1CC[C@H]1[C@H]2CC[C@@]2(C)C=C(C#N)C[C@H]12	6.81

Entry `C[C@@]12CC[C@H](O)C[C@H]1CC[C@@H]1[C@H]3CC(=O)C[C@@H]3CC[C@H]12` has what pIC50?
5.82

Entry `CO[C@H]1[C@H]2CC[C@@H]3[C@H]4CC(=O)C[C@]4(C)CC[C@H]3[C@]2(C)CC[C@@H]1O` has what pIC50?
7.08

---

assayEndpoint: melting point

CO[C@H]1[C@H]2CC[C@H]3[C@@H](CC[C@@]4(C)C(=O)CC[C@H]34)[C@]2(C)CC[C@@H]1O [KK-117]	215 to 218 °C
C[C@@]12CC[C@@H]3[C@H](CC(=O)[C@@H]4C[C@@H](O)CC[C@@]34C)[C@H]1CC(=O)C2 [MQ-124]	205 to 207 °C
C[C@@]12CC[C@@H]3[C@H](CC[C@H]4C[C@@H](O)CC[C@]43C)[C@H]1CC(=O)C2 [KK-97]	132 to 134 °C
C[C@@]12CC[C@@H]3[C@H](CC[C@H]4C[C@@H](O)CC[C@]43C)[C@H]1C[C@@H](C#N)C2 [KK-137]	155 to 157 °C
C[C@@]12CC[C@@H]3[C@H](CC[C@@H]4C[C@@H](O)CC[C@]43C)[C@H]1CC(=O)C2 [MQ-35]	152 to 153 °C

Entry C[C@@]12CC[C@H](O)C[C@H]1CC[C@H]1[C@H]2CC[C@@]2(C)C=C(C#N)C[C@H]12 [KK-141] has what melting point?
247 to 249 °C

Entry CO[C@H]1CC[C@]2(C)CC[C@@H]3[C@H](CC[C@@H]4C[C@@H](O)CC[C@]43C)[C@@H]12 [MQ-117] has what melting point?
137 to 139 °C
